- Target desc: α1L-adrenergic receptor (α1A-adrenergic receptor / CRELD1α complex) in α1L cells (Homo sapiens)
- Construct: the coding region of the ADRA1A gene was subcloned into the EcoRI restriction enzyme site of the multicloning site A of the pIRES; expressed in transfected cells
- Sequence (P35348 1-466): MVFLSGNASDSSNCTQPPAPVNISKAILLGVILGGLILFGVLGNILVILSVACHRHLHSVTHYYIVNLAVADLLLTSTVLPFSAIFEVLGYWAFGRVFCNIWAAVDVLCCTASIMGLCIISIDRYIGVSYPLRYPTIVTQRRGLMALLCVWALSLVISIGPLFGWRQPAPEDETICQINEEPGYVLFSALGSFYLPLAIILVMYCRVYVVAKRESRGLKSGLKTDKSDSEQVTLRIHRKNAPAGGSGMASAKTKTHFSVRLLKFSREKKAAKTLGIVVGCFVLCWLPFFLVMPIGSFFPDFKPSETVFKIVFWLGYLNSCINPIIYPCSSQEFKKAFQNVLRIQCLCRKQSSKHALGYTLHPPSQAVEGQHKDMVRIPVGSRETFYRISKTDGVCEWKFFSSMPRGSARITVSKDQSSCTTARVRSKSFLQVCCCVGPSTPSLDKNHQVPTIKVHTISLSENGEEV
- Sequence (Q96HD1 30-420 partner): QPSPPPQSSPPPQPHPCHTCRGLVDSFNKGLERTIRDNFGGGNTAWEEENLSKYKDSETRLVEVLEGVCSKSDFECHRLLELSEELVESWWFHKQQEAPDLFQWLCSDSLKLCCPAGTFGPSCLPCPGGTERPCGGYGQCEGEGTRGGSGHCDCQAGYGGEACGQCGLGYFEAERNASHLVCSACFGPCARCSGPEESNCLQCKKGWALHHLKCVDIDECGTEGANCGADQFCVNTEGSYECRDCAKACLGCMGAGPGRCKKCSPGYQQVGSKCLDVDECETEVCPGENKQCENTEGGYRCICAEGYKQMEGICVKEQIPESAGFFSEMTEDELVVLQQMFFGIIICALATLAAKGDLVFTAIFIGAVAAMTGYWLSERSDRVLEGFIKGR
- Assay name: Whole-cell [3H]-silodosin binding in α1L cells (CHO-K1 coexpressing ADRA1A and CRELD1α)
- Details: α1L cells, saturation binding, whole-cell method
pKd: −log10 of the molar value.

Molecule | pKd
C[C@H](Cc1cc2c(c(C(N)=O)c1)N(CCCO)CC2)NCCOc1ccccc1OCC(F)(F)F [[^3H]-silodosin] | 9.07
